As an illustration, consider measured Ki for compounds on SYK kinase (Homo sapiens).

Sample records with Ki:
Cc1nc2cc(Nc3nc(-c4cccc(S(C)(=O)=O)c4)nc4cn[nH]c34)ccc2[nH]1 [Example #252] = 10 to 100 nM
c1csc(-c2nc(Nc3ccc4cn[nH]c4c3)c3[nH]ncc3n2)c1 [Example #82] = < 10 nM
COc1ccc(-c2nc(Nc3ccc(N4CCN(C)CC4)cc3)c3[nH]ncc3n2)cc1 [Example #66] = < 10 nM
c1ccc(-c2nc(Nc3ccc(N4CCOCC4)cc3)c3[nH]ncc3n2)cc1 [Example #7] = < 10 nM
Cc1nc2cc(Nc3nc(-c4ccc5c(c4)NCCO5)nc4cn[nH]c34)ccc2[nH]1 [Example #302] = < 10 nM

Task: Give Ki (SYK kinase (Homo sapiens)) of the following compound: COc1ccc(Nc2nc(-c3cccc(OC(F)(F)F)c3)nc3cn[nH]c23)cc1OC [Example #226]
Output: 10 to 100 nM

Task: Give Ki (SYK kinase (Homo sapiens)) of the following compound: COc1ccc(Nc2nc(-c3cscn3)nc3cn[nH]c23)cc1OC [Example #199]
Output: 10 to 100 nM

Task: Give Ki (SYK kinase (Homo sapiens)) of the following compound: Clc1cccc(-c2nc(Nc3ccc(N4CCOCC4)cc3)c3[nH]ncc3n2)c1 [Example #231]
Output: 10 to 100 nM

----------
# Experimental Target: SYK kinase (Homo sapiens)
pKi: −log10 of the molar value.
Assay Readout: pKi

Task: Give pKi (SYK kinase (Homo sapiens)) of the following compound: "FS(F)(F)(F)(F)c1cccc(-c2nc(Nc3ccc(N4CCOCC4)cc3)c3[nH]ncc3n2)c1"
Output: 7.00 to 8.00

Task: Give pKi (SYK kinase (Homo sapiens)) of the following compound: "c1csc(-c2nc(Nc3ccc(-n4nccn4)cc3)c3[nH]ncc3n2)c1"
Output: 6.00 to 7.00

Task: Give pKi (SYK kinase (Homo sapiens)) of the following compound: "COC(=O)c1ccc(-c2nc(Nc3ccc4c(c3)NC(=O)CC4)c3[nH]ncc3n2)cc1"
Output: 6.00 to 7.00

----------
# Lookup of reported Ki keyed by entry
# Experimental Target: SYK kinase (Homo sapiens)

Sample records with Ki:
CCN1CCN(c2ccc(Nc3nc(-c4cn5ccccc5n4)nc4cn[nH]c34)cc2)CC1 = 10 to 100 nM
CN1CCN(C2CCN(C(=O)c3ccc(Nc4nc(-c5cccs5)nc5cn[nH]c45)cc3)CC2)CC1 = < 10 nM
CS(=O)(=O)Nc1cccc(-c2nc(Nc3ccc(N4CCNCC4)cc3)c3[nH]ncc3n2)c1 = < 10 nM
O=S(=O)(c1cccc(Nc2nc(-c3cccs3)nc3cn[nH]c23)c1)C(F)(F)F = 100 to 1000 nM

Switching to the query record.
Task: Give Ki (SYK kinase (Homo sapiens)) of the following compound: "Cc1cccc(NC(=O)Nc2ccc(Nc3nc(-c4ccsc4)nc4cn[nH]c34)cc2)c1"
Output: 100 to 1000 nM

----------
# Experimental Target: LRRK2 (Homo sapiens)
# Sequence (Q5S007 970-2527 limits assumed): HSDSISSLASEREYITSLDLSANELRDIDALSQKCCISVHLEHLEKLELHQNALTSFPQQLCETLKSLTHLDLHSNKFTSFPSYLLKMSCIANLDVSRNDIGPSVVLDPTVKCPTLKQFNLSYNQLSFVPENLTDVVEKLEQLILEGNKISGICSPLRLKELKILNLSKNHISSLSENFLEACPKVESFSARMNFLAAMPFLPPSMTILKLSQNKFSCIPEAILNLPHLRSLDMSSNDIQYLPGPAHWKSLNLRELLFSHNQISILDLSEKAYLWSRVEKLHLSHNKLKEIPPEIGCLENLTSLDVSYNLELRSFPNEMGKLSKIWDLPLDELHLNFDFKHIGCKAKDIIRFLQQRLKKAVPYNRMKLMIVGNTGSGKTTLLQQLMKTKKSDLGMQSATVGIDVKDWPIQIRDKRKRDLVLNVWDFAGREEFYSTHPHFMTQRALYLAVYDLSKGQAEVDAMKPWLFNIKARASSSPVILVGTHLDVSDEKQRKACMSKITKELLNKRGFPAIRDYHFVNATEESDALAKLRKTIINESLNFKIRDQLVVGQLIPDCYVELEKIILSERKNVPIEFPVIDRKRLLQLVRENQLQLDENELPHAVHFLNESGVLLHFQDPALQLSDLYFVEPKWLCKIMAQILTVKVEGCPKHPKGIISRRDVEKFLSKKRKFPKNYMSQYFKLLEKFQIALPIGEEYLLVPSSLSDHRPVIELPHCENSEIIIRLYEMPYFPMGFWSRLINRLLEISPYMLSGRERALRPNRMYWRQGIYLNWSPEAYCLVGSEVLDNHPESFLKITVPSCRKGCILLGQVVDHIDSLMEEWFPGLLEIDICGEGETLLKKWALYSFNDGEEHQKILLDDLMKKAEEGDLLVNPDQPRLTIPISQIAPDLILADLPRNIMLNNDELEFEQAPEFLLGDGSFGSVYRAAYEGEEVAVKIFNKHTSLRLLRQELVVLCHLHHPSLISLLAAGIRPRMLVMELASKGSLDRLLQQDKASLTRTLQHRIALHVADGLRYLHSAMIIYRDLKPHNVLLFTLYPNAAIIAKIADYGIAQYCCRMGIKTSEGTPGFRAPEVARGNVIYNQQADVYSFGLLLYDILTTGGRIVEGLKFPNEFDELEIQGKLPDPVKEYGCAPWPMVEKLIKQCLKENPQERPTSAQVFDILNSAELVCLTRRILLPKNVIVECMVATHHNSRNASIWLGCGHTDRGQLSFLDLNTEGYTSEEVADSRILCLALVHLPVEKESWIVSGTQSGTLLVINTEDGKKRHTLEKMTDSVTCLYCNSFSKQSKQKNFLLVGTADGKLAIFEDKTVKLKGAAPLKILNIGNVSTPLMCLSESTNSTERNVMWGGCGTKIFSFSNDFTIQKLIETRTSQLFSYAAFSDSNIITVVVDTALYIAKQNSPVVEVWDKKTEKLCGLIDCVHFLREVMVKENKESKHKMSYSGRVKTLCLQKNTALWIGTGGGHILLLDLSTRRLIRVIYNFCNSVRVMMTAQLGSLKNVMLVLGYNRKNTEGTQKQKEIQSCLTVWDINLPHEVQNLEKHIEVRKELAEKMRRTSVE
# Assay Notes: LRRK2-LRRK2 G2019S-Assay (LanthaScreen Eu Kinase Binding Assay)
# Conditions: 5 nM LRRK2 or their mutants, 10 nM tracer 236, RT 1 h; read-out: LRRK2 Activities: IC50
# Procedure: In the assay LanthaScreen™ Eu Kinase Binding Assay by Invitrogen Corporation (Carlsbad) the effect of invention of a compound on the phosphorylation is determined by measurement of fluorescence intensity emission ratio based on the binding and displacement of a proprietary, Alexa Fluor® 647-labeled, ATP-competitive kinase inhibitor scaffold (kinase tracer) to the kinase of interest. […] The fluorescence intensity ratio is directly proportional to the amount of peptide phosphorylation. […]
pIC50: −log10 of the molar value.
Assay Readout: pIC50

Task: May I ask what pIC50 has been recorded for COc1cccc(-c2nc(Nc3ccc(OC)c(OC)c3)c3[nH]ncc3n2)c1 [Example #60] ?
Output: 6.00 to 7.00

Task: May I ask what pIC50 has been recorded for CC(=O)N1CCN(c2ccc(Nc3nc(-c4ncco4)nc4cn[nH]c34)cc2)CC1 [Example #204] ?
Output: 6.00 to 7.00

Task: May I ask what pIC50 has been recorded for NS(=O)(=O)c1cccc(-c2nc(Nc3ccc4c(c3)NC(=O)CC4)c3[nH]ncc3n2)c1 [Example #238] ?
Output: 7.00 to 8.00

Task: May I ask what pIC50 has been recorded for O=C(c1ccc(Nc2nc(-c3cccs3)nc3cn[nH]c23)cc1)N1CCOCC1 [Example #294] ?
Output: 6.00 to 7.00

Task: May I ask what pIC50 has been recorded for CN(C)c1ccc(Nc2nc(-c3ccccc3)nc3cn[nH]c23)cc1 [Example #4] ?
Output: 6.00 to 7.00

Task: May I ask what pIC50 has been recorded for c1cc(-c2nc(Nc3ccc4cn[nH]c4c3)c3[nH]ncc3n2)cs1 [Example #76] ?
Output: 7.00 to 8.00

Origin of values: patent US9802937B2
